Field: relative binding affinity (% rel to HI). Provide a value for each of the binders that follow.
biological target: membrane-associated human IR-B (plasma membranes of BHK cells stably transfected with the human IR-B insert) (human) (UniProt P06213); test: SPA competition vs [125I-A14Y]-human insulin, membrane hIR-B, 0.1% HSA
Sequence (P06213 28-1382): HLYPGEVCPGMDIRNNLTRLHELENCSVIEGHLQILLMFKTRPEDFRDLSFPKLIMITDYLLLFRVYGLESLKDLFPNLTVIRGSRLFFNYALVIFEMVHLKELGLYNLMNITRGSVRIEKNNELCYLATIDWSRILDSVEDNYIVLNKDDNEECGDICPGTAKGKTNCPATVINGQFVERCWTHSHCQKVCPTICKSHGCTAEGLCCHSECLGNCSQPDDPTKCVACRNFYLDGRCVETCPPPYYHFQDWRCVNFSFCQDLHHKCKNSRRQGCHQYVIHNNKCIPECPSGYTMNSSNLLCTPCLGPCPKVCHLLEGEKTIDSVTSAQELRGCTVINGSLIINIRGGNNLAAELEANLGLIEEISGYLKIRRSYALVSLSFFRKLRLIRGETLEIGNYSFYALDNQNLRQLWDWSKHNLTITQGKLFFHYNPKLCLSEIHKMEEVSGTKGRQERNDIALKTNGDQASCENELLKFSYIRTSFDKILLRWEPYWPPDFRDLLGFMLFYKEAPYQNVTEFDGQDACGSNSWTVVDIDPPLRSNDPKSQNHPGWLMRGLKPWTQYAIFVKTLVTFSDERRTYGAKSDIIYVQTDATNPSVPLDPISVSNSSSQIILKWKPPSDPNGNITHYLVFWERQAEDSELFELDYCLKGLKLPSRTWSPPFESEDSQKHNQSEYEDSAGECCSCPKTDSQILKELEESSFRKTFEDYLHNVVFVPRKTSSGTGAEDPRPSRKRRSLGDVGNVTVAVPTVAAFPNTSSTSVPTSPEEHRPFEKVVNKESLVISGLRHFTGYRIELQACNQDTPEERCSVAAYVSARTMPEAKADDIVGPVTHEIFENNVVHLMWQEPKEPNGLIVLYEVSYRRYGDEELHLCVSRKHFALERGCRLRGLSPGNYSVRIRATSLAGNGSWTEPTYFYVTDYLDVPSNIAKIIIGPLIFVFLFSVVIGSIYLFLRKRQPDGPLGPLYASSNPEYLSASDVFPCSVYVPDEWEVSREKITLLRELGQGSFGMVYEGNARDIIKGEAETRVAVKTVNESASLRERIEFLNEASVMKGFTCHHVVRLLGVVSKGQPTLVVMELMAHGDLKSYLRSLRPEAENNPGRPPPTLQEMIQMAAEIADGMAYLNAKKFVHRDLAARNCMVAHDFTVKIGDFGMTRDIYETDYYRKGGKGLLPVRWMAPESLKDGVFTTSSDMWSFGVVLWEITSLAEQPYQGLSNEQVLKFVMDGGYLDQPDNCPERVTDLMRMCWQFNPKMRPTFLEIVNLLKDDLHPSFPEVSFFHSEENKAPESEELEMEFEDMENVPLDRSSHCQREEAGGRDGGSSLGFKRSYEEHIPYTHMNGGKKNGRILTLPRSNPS

Tell me measured relative binding affinity (% rel to HI) for A8R, A22K(N(eps)tetradecanedioyl-4xgGlu), B3E, B26E, B29R, desB30 human insulin (ligand, not fully specified; Lys A22 acylated on N(eps) with tetradecanedioyl-4xgGlu, Two-chain acylated insulin analogue; also called Ex. No. 15) chain 1: GIVEQCCRSICSLYQLENYCNK chain 2: FVEQHLCGSHLVEALYLVCGERGFFETPR please.
174 % rel to HI

Tell me measured relative binding affinity (% rel to HI) for A8R, A22K(N(eps)tetradecanedioyl-4xgGlu), B3E, B27E, B28E, B29R, desB30 human insulin (ligand, not fully specified; Lys A22 acylated on N(eps) with tetradecanedioyl-4xgGlu, Two-chain acylated insulin analogue; also called Ex. No. 24) chain 1: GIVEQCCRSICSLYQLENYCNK chain 2: FVEQHLCGSHLVEALYLVCGERGFFYEER please.
164 % rel to HI

Tell me measured relative binding affinity (% rel to HI) for A8R, A22K(N(eps)tetradecanedioyl-4xgGlu), B3E, B26E, B28E, B29R, desB30 human insulin (ligand, not fully specified; Lys A22 acylated on N(eps) with tetradecanedioyl-4xgGlu, Two-chain acylated insulin analogue; also called Ex. No. 23) chain 1: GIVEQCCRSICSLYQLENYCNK chain 2: FVEQHLCGSHLVEALYLVCGERGFFETER please.
143 % rel to HI

These data points were gathered from patent US20180305431A1.
